Origin of measurements: ChEMBL document CHEMBL1201862

System: HCT-15

molecule	measured.target	GI50
Nc1nnc(-c2ccco2)c(-c2ccco2)n1	HCT-15	> 100 µM
C=C1CC(C/C=C(\C)CC2CC(=C)C(=O)O2)OC1=O (centres undefined)	HCT-15	> 100 µM
O=C1ON(Cc2ccccc2)C(c2ccccc2)N1c1ccccc1 (centres undefined)	HCT-15	> 100 µM
O=C1CCC(=O)C1=NNc1cc(Cl)cc(Cl)c1	HCT-15	55.8 µM
C=C(C)[C@@H]1CCC2=C[C@H](CC(C)=CC3=CC(C)=C(O3)[C@@H]1OC)OC2=O	HCT-15	> 100 µM
c1cc2c(cc1C(N1CCNCC1)N1CCNCC1)OCO2	HCT-15	> 100 µM
O=c1[nH]c(=O)n(C2OC(CO)C(O)C2O)c2ncc(-c3ccc(-c4ccccc4)cc3)nc12 (centres undefined)	HCT-15	> 20 µM
COc1ccc2c(c1)C(O)(C(F)(F)F)c1cc(C(=O)C(F)(F)F)c3ccccc3c1N2 (centres undefined)	HCT-15	7.35 µM
Cc1sc2nc(-c3cc([N+](=O)[O-])c(Cl)cc3Cl)c(/C=N/NC(=N)N)n2c1C	HCT-15	3.61 µM
